Data provenance: patent US20250019439A1

biological target: T1, ADI-76359; assay: SPR Carterra avidity, yeast anti-ID, *koff limit
T1 construct: anti-CD3 antibody made in CHO cells, captured by anti-human Fc
T1 sequence (VH, as listed by the source, chain 1 of 2): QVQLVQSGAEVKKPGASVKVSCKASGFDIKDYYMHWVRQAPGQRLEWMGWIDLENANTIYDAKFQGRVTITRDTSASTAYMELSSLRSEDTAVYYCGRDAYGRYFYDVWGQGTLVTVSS
T1 sequence (VL, as listed by the source, chain 2 of 2): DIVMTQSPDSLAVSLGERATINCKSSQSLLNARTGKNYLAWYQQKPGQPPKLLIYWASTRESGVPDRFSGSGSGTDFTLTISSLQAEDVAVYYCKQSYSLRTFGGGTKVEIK
pKd: −log10 of the molar value.
assay-endpoint: pKd

>>> observed_result("ADI-34137 (antibody, V domains shown, anti-ID IgG) VH: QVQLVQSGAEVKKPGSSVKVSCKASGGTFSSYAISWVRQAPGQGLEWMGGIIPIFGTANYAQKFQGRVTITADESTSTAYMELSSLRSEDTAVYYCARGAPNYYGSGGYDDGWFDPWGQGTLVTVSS VL: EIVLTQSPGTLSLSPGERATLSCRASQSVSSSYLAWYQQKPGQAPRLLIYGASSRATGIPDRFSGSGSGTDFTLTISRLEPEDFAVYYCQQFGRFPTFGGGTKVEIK")
10.23
